Source listed as PubChem BioAssay (NCI).

Tested on: CAKI-1 renal
Assay: NCI tumour cell line growth inhibition, 48 h; in the data active means GI50 below about 0.43 µM; inactive means the rest
Where a SMILES comes first, the peptide text is derived from it. [ ]: non-standard residue; d: D form. The star is where a group is joined. ξ: configuration not given here. NMeF = CN[C@@H](Cc1ccccc1)C(=O)O; NMeV = CN[C@H](C(=O)O)C(C)C; ξNMeN = CNC(CC(N)=O)C(=O)O; NMeA = CN[C@@H](C)C(=O)O; ξNMeV = CNC(C(=O)O)C(C)C; Boc = CC(C)(C)OC(=O)*
Outcomes: active, inactive

COMPOUND: COc1cccc2c1O/C(=C\c1ncc([N+](=O)[O-])n1C)C2=O
CLASS ASSIGNMENT: active
//
COMPOUND: COC(=O)[C@H](C)N(C)C(=O)C(CC(N)=O)N(C)C(=O)[C@H](Cc1ccccc1)N(C)C(=O)[C@@H]1CCCN1C(=O)[C@H](C(C)C)N(C)C(=O)C(C(C)C)N(C)C(=O)[C@@H](NC(=O)OC(C)(C)C)C(C)C (some centres undefined) (Boc-V[ξNMeV][NMeV]P[NMeF][ξNMeN][NMeA]-OMe)
CLASS ASSIGNMENT: inactive
//
COMPOUND: COc1ccc(/C=C/C2C(C#N)=C(N)OC3=C2C(=O)CCC3)cc1 (centres undefined)
CLASS ASSIGNMENT: inactive
//
COMPOUND: COc1cc(/C=C/C(=O)c2ccccc2)cc(OC)c1OC
CLASS ASSIGNMENT: inactive
//
COMPOUND: C=[CH][Sn]([CH]=C)([S]c1cccc2cccnc12)[S]c1cccc2cccnc12
CLASS ASSIGNMENT: active
//
COMPOUND: Cc1cc(=O)n2nnc3c4ccccc4ccc3n12
CLASS ASSIGNMENT: inactive
//
COMPOUND: CC(=O)c1c(Nc2cccc(F)c2)[nH]c2c(Cl)cc(Cl)c(Cl)c2c1=O
CLASS ASSIGNMENT: active
//
COMPOUND: COc1cc(C2CC(c3cccc(Nc4ccncc4)c3)=NN2c2ccccc2)cc(OC)c1OC (centres undefined)
CLASS ASSIGNMENT: inactive
//
COMPOUND: C=C1C(O)C2C(=C(CCC3CC3)C13CC3)C(=O)C(C)(C)C2O (centres undefined)
CLASS ASSIGNMENT: inactive
//
COMPOUND: Cc1cc(Cl)ccc1OCc1nn2c(CCCCc3nnc4sc(COc5ccc(Cl)cc5C)nn34)nnc2s1
CLASS ASSIGNMENT: inactive
//
COMPOUND: C#CC[C@@H]1C[C@]2(C)[C@H]3CC[C@@H]4[C@H]5C(C(=C)C)CC[C@]5(C(=O)NCCCCN)CC[C@@]4(C)[C@]3(C)CC[C@H]2C(C)(C)[C@H]1OC(C)=O (some centres undefined)
CLASS ASSIGNMENT: inactive
//
COMPOUND: COc1ccc(C(=O)c2sc3nc4c(cc3c2N)CCCC4)cc1OC
CLASS ASSIGNMENT: inactive
//
COMPOUND: CC(=O)N1CCC(Nc2ncc3cc(Oc4ccc(F)cc4F)c(=O)n(C)c3n2)CC1
CLASS ASSIGNMENT: inactive
//
COMPOUND: CCCN1C/C(=C\c2ccc(O)c(OC)c2)C(=O)/C(=C/c2ccc(O)c(OC)c2)C1
CLASS ASSIGNMENT: inactive

---

Test system: MCF7 breast
Assay: NCI tumour cell line growth inhibition, 48 h; in the data active = GI50 below about 0.43 µM; inactive = the rest
Outcomes: 1.0 (active), 0.0 (inactive)

COMPOUND: COc1cc(-c2nn(-c3cccc(NC(=O)Nc4cccc(C(F)(F)F)c4)c3)cc2-c2ccncc2)ccc1Cl
CLASS ASSIGNMENT: 0.0
//
COMPOUND: Cn1ccc2c1SSSSS2
CLASS ASSIGNMENT: 0.0
//
COMPOUND: CCCN1C/C(=C\c2ccc(O)c(OC)c2)C(=O)/C(=C/c2ccc(O)c(OC)c2)C1
CLASS ASSIGNMENT: 0.0
//
COMPOUND: Cc1cc(Cl)ccc1OCc1nn2c(CCCCc3nnc4sc(COc5ccc(Cl)cc5C)nn34)nnc2s1
CLASS ASSIGNMENT: 0.0
//
COMPOUND: O=c1ncc(I)cn1C1CC(O)C(CO)O1 (stereo not given)
CLASS ASSIGNMENT: 0.0
//
COMPOUND: COc1cccc2c1O/C(=C\c1ncc([N+](=O)[O-])n1C)C2=O
CLASS ASSIGNMENT: 0.0
//
COMPOUND: C=C1C(O)C2C(=C(CCC3CC3)C13CC3)C(=O)C(C)(C)C2O (stereo not given)
CLASS ASSIGNMENT: 0.0
//
COMPOUND: O=C1/C=C/[C@@H](O)[C@@H]2C[C@@H](O)C[C@H]2/C=C/CCC[C@H](CCc2ccccc2)O1
CLASS ASSIGNMENT: 1.0
//
COMPOUND: COc1cc(/C=C/C(=O)c2ccccc2)cc(OC)c1OC
CLASS ASSIGNMENT: 1.0
//
COMPOUND: c1ccc(CC(Cc2ccccc2)C2=NCCCN2)cc1
CLASS ASSIGNMENT: 0.0

---

TGI values for the molecules below.
System: K-562 leukemia
Assay: NCI tumour cell line growth inhibition, 48 h

MOLECULE: CC(C)N(C(C)C)[PH+]1O[PH+](N(C(C)C)C(C)C)O[PH+](N(C(C)C)C(C)C)O[PH+](N(C(C)C)C(C)C)O1.[C-]#[O+].[C-]#[O+].[C-]#[O+].[C-]#[O+].[C-]#[O+].[C-]#[O+].[C-]#[O+].[C-]#[O+].[Mo].[Mo] (stereo not drawn)
TGI: > 100 µM
--
MOLECULE: O=C1C(C=NC(=S)c2ccccc2)=C(O)c2ccccc21
TGI: > 100 µM
--
MOLECULE: S=c1[nH]nc(-c2ccccc2)n1/N=C\c1ccc(-c2ccc(Cl)cc2)o1
TGI: > 100 µM
--
MOLECULE: CCCCCCCCCCCC[C@@H](O)[C@H]1CC[C@H]([C@H]2CC[C@H]([C@H](O)CC[C@H](O)CCCCCCCC3=C[C@H](C)OC3=O)O2)O1
TGI: > 10 µM
--
MOLECULE: O=C1C(c2ccc([N+](=O)[O-])cc2)=C(Cl)C(=O)c2c(O)cccc21
TGI: > 100 µM
--
MOLECULE: O=C(c1ccccc1)c1ccc2cccc(OC3OC(CO)C(O)C(O)C3O)c2n1 (stereo not drawn)
TGI: > 100 µM
--
MOLECULE: OC(COc1cccc2ccccc12)CN1CCOCC1 (stereo not drawn)
TGI: > 100 µM
--
MOLECULE: Cc1ccc(C(=O)Nc2ccc(S(=O)(=O)O)c3cc(S(=O)(=O)O)cc(S(=O)(=O)O)c23)cc1N
TGI: > 100 µM

---

Measured TGI values are reported for all entries that follow.
Test system: NCI-H23 lung
Test: NCI tumour cell line growth inhibition, 48 h
Where a SMILES comes first, the peptide text is derived from it. [ ]: non-standard residue; d: D form. The star is where a group is joined. ξ: configuration not given here. NMeF = CN[C@@H](Cc1ccccc1)C(=O)O; NMeV = CN[C@H](C(=O)O)C(C)C; ξNMeN = CNC(CC(N)=O)C(=O)O; NMeA = CN[C@@H](C)C(=O)O; ξNMeV = CNC(C(=O)O)C(C)C; Boc = CC(C)(C)OC(=O)*

COMPOUND: O=c1ncc(I)cn1C1CC(O)C(CO)O1 (centres undefined)
TGI: > 3250 µM
//
COMPOUND: Cc1ccccc1NC(=O)C(=O)c1c(O)c2ccc(O)cc2oc1=O
TGI: > 100 µM
//
COMPOUND: CCCCCCCCCCCCCCCCCCOP(=O)([O-])OCC[N+](C)(C)C
TGI: 30.4 µM
//
COMPOUND: O=C(NC(Cc1ccc(I)cc1)C(=O)O)c1cccc(Br)c1 (centres undefined)
TGI: > 100 µM
//
COMPOUND: NC(Cc1ccccc1)P(=O)(O)O (centres undefined)
TGI: > 100 µM
//
COMPOUND: O=C(NC(=S)Nc1ccc2c(c1)Sc1ccccc1O2)c1ccccc1
TGI: > 100 µM
//
COMPOUND: CCC(=O)OC1=C(c2ccccc2)Sc2ccc(Cl)cc2-n2cccc21
TGI: > 10 µM
//
COMPOUND: COc1cc(OC)c(/C=C/c2cc[n+](C)c3ccccc23)c(OC)c1
TGI: 17.3 µM
//
COMPOUND: COC(=O)[C@H](C)N(C)C(=O)C(CC(N)=O)N(C)C(=O)[C@H](Cc1ccccc1)N(C)C(=O)[C@@H]1CCCN1C(=O)[C@H](C(C)C)N(C)C(=O)C(C(C)C)N(C)C(=O)[C@@H](NC(=O)OC(C)(C)C)C(C)C (some centres undefined) (Boc-V[ξNMeV][NMeV]P[NMeF][ξNMeN][NMeA]-OMe)
TGI: > 75 µM

---

TGI reference
System: KM12 colon
Assay: NCI tumour cell line growth inhibition, 48 h
MEASURED PARAMETER: TGI

COMPOUND: Cc1cc(Cl)ccc1OCc1nn2c(CCCCc3nnc4sc(COc5ccc(Cl)cc5C)nn34)nnc2s1
RESULT: > 100 µM
//
COMPOUND: COc1cc(C(=O)N(C)N(C)C)cc(OC)c1OC
RESULT: > 10 µM
//
COMPOUND: CCN(CC)CCN1C(=O)CC2[C@@H]3CCc4cc(OC)ccc4C3CC[C@]2(C)C1=O (some centres not stated)
RESULT: > 100 µM
//
COMPOUND: CCN=c1nc2sc3c(c2c(NC(=S)NCC)s1)CCN(N1CCc2c(sc4nc(=NCC)sc(NC(=S)NCC)c24)C1)C3
RESULT: > 100 µM
//
COMPOUND: N#CNC(=NCCO)NCCO
RESULT: > 100 µM
//
COMPOUND: O=C1OC2C=CCC1C2 (configuration not stated)
RESULT: > 100 µM
//
COMPOUND: c1ccc(-c2nnc(CCCCCCCCc3nnc(-c4ccccc4)o3)o2)cc1
RESULT: > 100 µM
//
COMPOUND: COc1cc(-c2nc3ccc(N4CCN(C)CC4)cc3[nH]2)c(OC)c2[nH]c(CO)nc12
RESULT: > 100 µM
//
COMPOUND: CC1CC2(OC2C)C(=O)OC2CCN(C)C/C=C(/COC(=O)C1(C)O)C2=O (configuration not stated)
RESULT: > 100 µM
//
COMPOUND: Cc1[nH]n(-c2ncc(C(=O)O)c(=O)[nH]2)c(=O)c1CCO
RESULT: > 100 µM
//
COMPOUND: C[C@@H](O)CCC(=O)c1ccoc1
RESULT: > 100 µM
//
COMPOUND: C=C(C(=O)OC)N1C(=O)CC(C)C1=O (configuration not stated)
RESULT: 43.8 µM
//
COMPOUND: O=C(c1ccccc1)c1ccc2cccc(OC3OC(CO)C(O)C(O)C3O)c2n1 (configuration not stated)
RESULT: > 100 µM
//
COMPOUND: Cc1cc(=O)[nH]c(S(=O)(=O)NC(=S)Nc2ccc(Cl)cc2)n1
RESULT: > 100 µM
//
COMPOUND: COc1ccc(C(=O)c2sc3nc4c(cc3c2N)CCCC4)cc1OC
RESULT: 15.5 µM
//
COMPOUND: Nc1nc(N)c2ncn(CCCC(c3ccccc3)P(=O)(O)O)c2n1 (configuration not stated)
RESULT: > 100 µM
//
COMPOUND: O=C1C(C=NC(=S)c2ccccc2)=C(O)c2ccccc21
RESULT: > 100 µM
//
COMPOUND: CC(=O)N1CCC(Nc2ncc3cc(Oc4ccc(F)cc4F)c(=O)n(C)c3n2)CC1
RESULT: > 25 µM
//
COMPOUND: COc1cc([C@@H]2c3cc4c(cc3[C@@H](OC3OC5CO[C@@H](c6cccs6)OC5C(O)C3O)[C@H]3COC(=O)[C@H]23)OCO4)cc(OC)c1O (some centres not stated)
RESULT: 5.06 µM
//
COMPOUND: CSC1N=CNc2c1sc(=S)n2-c1ccccc1 (configuration not stated)
RESULT: > 100 µM
//
COMPOUND: Cn1nc(-c2cccc(-c3nn(C)c(=NCCO)s3)n2)sc1=NCCO
RESULT: > 100 µM
//
COMPOUND: CNC(=S)/C(C#N)=C(\N)N1CCN(C)CC1
RESULT: > 100 µM
